Target: Potassium voltage-gated channel subfamily A member 5 (Homo sapiens, UniProt P22460)
Sequence (P22460 whole entry): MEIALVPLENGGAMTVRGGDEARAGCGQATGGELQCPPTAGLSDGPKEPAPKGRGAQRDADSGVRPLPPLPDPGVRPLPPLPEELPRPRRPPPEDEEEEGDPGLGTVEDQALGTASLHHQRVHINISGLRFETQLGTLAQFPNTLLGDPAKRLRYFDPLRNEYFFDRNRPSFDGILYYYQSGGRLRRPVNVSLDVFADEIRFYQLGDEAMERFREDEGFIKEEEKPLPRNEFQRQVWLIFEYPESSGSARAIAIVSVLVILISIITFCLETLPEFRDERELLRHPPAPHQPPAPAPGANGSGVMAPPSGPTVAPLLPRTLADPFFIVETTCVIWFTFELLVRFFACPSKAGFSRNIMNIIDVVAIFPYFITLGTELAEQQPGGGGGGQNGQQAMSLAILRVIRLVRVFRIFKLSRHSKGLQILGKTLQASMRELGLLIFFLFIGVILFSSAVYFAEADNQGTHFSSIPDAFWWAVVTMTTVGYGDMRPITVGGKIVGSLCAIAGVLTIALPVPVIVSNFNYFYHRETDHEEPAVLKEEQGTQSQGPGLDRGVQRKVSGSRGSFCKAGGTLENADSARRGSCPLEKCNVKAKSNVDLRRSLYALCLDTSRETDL
Assay: Blockade of Kv1.5 channel expressed in LTK cells by patch clamp method
Endpoint: IC50 (nM)

(1) COc1ccc(CCN2C(=O)CSC2c2ccc(C)c(C)c2)cc1 (configuration not stated)
(2) COc1ccc(CCn2ncc(C(=O)c3ccc(C)c(C)c3)n2)cc1
**Query** // which entry has the larger IC50 value, 1 or 2 ? Indicate your choice by writing its label.
**Result** 2
(2: 294 nM, 1: 137 nM)

----------
Target: Potassium voltage-gated channel subfamily A member 5 (Homo sapiens)
Assay: Blockade of Kv1.5 channel expressed in LTK cells at 1 uM by patch clamp method
Assay type: functional, cell-based
Endpoint: Activity (%)

Record smiles	Tested on	Endpoint	Units	Observed value
CCc1ccc(C(=O)c2cnn(CCc3ccc(OC)cc3)n2)cc1	Potassium voltage-gated channel subfamily A member 5 (Homo sapiens)	Activity	%	86
COc1ccc(CCn2ncc(C(=O)c3ccc(OC)cc3)n2)cc1	Potassium voltage-gated channel subfamily A member 5 (Homo sapiens)	Activity	%	84
COc1ccc(CCn2ncc(C(=O)c3ccc(Cl)cc3)n2)cc1	Potassium voltage-gated channel subfamily A member 5 (Homo sapiens)	Activity	%	85

----------
Biological target: Potassium voltage-gated channel subfamily A member 5 (Homo sapiens, UniProt P22460)
Experiment: Blockade of Kv1.5 channel expressed in LTK cells at 1 uM by patch clamp method
Assay type: functional, cell-based
Endpoint: Activity (%)

Record smiles	Observed value
COc1ccc(CCn2ncc(C(=O)c3ccc(C)c(C)c3)n2)cc1	90

(A) COc1ccc(CCn2ncc(C(=O)c3ccc(N(C)C)cc3)n2)cc1
(B) COc1ccc(CCn2ncc(C(=O)c3ccccc3Cl)n2)cc1
**Query** Look at A and B . Which one has the lower recorded Activity number? Indicate your choice by writing its label.
**Result** B
(B: 22%, A: 99%)

(a) COc1ccc(CCn2ncc(C(=O)c3ccc(C(C)C)cc3)n2)cc1
(b) COc1ccc(CCn2ncc(C(=O)c3ccc(N(C)C)cc3OC)n2)cc1
**Query** // which entry has the larger Activity value, a or b ? Indicate your choice by writing its label.
**Result** a
